Target: furin, P09958;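 note: purified furin at 1:10 enzyme:substrate in 50 mM HEPES pH 7.5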
Sequence (P09958 whole entry): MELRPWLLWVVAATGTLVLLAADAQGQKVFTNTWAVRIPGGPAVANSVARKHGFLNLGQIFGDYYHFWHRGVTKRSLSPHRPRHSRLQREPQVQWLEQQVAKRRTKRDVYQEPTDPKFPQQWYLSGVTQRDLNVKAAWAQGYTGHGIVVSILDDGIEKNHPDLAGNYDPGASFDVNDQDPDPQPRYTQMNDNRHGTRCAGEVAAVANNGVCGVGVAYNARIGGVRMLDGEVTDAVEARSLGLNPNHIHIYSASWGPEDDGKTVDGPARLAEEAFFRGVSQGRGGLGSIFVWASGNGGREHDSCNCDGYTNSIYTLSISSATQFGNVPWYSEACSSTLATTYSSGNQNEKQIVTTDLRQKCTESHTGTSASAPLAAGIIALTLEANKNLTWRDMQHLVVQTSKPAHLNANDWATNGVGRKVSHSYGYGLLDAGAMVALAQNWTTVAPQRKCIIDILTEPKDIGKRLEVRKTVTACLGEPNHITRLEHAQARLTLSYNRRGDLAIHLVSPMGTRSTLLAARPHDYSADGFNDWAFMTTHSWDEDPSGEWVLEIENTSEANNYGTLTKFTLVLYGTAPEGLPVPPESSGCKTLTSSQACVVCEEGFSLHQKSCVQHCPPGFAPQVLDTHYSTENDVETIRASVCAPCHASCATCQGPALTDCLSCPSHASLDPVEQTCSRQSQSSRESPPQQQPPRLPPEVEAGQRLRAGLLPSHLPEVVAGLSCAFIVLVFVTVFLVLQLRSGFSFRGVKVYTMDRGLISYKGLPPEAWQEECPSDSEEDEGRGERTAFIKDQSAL
Test: furin cleavage Z-score vs untreated control; higher = more cleavage, active = 3.5 or more, inactive = 1 or less, 8 variable residues between constant flanks
Settings: 15 min
Some of the results follow. The hit rate among all sequences tested is not known here.
Measure Name: furin cleavage Z-score
Number only, please.

# example entries with known answers
CAPAARFKKFAGNASASA [FS-367]
-0.599
CARARRVLEAAGNASASA [FS-1685]
-0.739
CATAQRRRRSAGNASASA [FS-877]
7.47
CADRSRTPRGAGNASASA [FS-759]
4.25
CAGAARLPRGAGNASASA [FS-777]
1.37
CAMEECSQHHAGNASASA [HC1775]
-0.421
CAVCAAILRRAGNASASA [HC1109]
-0.361
CAHNGRKKRSAGNASASA [FS-794]
13.4

The reported furin cleavage Z-score of the sequence CAESYSSMPPAGNASASA [HC1352] was -0.573

The reported furin cleavage Z-score of the sequence CAEVWCHRPSAGNASASA [HC2348] was 0.0316

The reported furin cleavage Z-score of the sequence CAHNGLRDLAAGNASASA [HC641] was 0.0336

The reported furin cleavage Z-score of the sequence CAILSRKKRSAGNASASA [FS-598] was 11

The reported furin cleavage Z-score of the sequence CARMRRHHHHAGNASASA [FS-2158] was 4.46

The reported furin cleavage Z-score of the sequence CANVCCSMSYAGNASASA [HC2001] was 1.55

The reported furin cleavage Z-score of the sequence CAASSSKKRSAGNASASA [FS-1310] was 1.89

The reported furin cleavage Z-score of the sequence CALAARRRRSAGNASASA [FS-264] was 11

The reported furin cleavage Z-score of the sequence CAWPAPQGSRAGNASASA [HC716] was -0.57

The reported furin cleavage Z-score of the sequence CAILHRQKRGAGNASASA [FS-665] was 12.9

The reported furin cleavage Z-score of the sequence CAPCGIVPAKAGNASASA [HC407] was 0.441

The reported furin cleavage Z-score of the sequence CARARRQDVKAGNASASA [FS-2649] was 0.529
